system: mGlu5; test: mGlu5 assays; assay type: cell-based; conditions: mode of mGlu5 pharmacology (NAM, PAM, Ago-PAM, Part. Antag., Inactive)
Sequence (P31424 21-1203): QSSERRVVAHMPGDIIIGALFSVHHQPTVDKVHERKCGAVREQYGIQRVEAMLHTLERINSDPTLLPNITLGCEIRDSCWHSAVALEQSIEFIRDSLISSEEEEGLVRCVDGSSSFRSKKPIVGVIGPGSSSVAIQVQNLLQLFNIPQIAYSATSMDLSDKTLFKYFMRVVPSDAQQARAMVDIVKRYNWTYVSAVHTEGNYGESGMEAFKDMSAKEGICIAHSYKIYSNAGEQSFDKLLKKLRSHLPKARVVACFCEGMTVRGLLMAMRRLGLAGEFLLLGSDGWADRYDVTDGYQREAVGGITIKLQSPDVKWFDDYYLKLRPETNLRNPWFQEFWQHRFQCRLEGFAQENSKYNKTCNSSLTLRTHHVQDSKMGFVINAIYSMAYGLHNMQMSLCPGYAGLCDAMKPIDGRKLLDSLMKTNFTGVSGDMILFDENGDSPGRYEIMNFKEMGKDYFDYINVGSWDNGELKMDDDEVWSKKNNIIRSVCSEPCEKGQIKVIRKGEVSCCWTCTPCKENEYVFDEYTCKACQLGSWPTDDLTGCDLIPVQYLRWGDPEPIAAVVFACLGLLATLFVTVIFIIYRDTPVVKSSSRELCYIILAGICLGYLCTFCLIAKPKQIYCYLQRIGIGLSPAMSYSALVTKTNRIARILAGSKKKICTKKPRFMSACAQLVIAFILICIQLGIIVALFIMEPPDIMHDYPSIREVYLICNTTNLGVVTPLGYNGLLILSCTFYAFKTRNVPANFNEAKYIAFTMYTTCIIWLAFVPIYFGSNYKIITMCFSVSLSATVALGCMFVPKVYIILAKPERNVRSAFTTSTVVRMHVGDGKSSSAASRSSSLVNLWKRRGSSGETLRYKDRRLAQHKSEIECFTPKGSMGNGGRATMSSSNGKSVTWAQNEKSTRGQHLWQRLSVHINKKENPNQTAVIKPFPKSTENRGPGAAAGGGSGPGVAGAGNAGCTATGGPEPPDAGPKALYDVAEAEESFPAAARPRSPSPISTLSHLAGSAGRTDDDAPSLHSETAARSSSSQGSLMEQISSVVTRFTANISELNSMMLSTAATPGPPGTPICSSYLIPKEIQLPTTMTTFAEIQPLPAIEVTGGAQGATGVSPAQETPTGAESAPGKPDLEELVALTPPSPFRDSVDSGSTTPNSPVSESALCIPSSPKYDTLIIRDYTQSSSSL
readout-label: Pharmacology

>>> value_reported("O=C(C1CCC1)N1CCCC1c1nc(-c2ccc(F)cc2)no1 (stereo not drawn) [23b]")
"low micromolar PAMs"
>>> value_reported("O=C(C1CCC1)N1CCCC1c1nc(-c2cccc(F)c2)no1 (stereo not drawn) [23a]")
"low micromolar PAMs"
>>> value_reported("O=C(C1CC1)N1CCCC[C@@H]1c1nc(-c2cccc(F)c2)no1 [22a]")
"ago-PAMs"
>>> value_reported("O=C(C1CCCC1)N1CCCC[C@@H]1c1nc(-c2cccc(F)c2)no1 [22c]")
"ago-PAMs"

These measurements were taken from paper PMC3179182.
